- experiment: 5-[^123I]IA SPECT of the living human brain, VOI kinetic analysis
- Type: in vivo, Humans (Homo sapiens)
- measurement conditions: human, cingulate cortex, intravenous, Median DV of low plasma nicotine group, Cingulate cortex; six volunteers
measurement type: Kp

[123I]c1cncc(OC[C@@H]2CCN2)c1 [5-[^123I]IA]	21.4

====

- experiment: 5-[^123I]IA SPECT of the living human brain, VOI kinetic analysis
- Type: in vivo, Humans (Homo sapiens)
- measurement conditions: human, brain (frontal lobe), intravenous, 8.1 mCi, Distribution volume (DV), Frontal lobe; subject 1; bolus
measurement type: Kp

[123I]c1cncc(OC[C@@H]2CCN2)c1 [5-[^123I]IA]	9.6

====

- experiment: 5-[^123I]IA SPECT of the living human brain, VOI kinetic analysis
- Assay type: in vivo, Humans (Homo sapiens)
- measurement conditions: human, temporal cortex, intravenous, Median DV of high plasma nicotine group, Temporal cortex; six volunteers
measurement type: Kp

[123I]c1cncc(OC[C@@H]2CCN2)c1 [5-[^123I]IA]	8.39

====

- experiment: 5-[^123I]IA SPECT of the living human brain, VOI kinetic analysis
- Assay type: in vivo, Humans (Homo sapiens)
- measurement conditions: human, pons, intravenous, 8.8 mCi, Distribution volume (DV); subject 4; bolus
measurement type: Kp

[123I]c1cncc(OC[C@@H]2CCN2)c1 [5-[^123I]IA]	9.23

====

- experiment: 5-[^123I]IA SPECT of the living human brain, VOI kinetic analysis
- Format: in vivo, Humans (Homo sapiens)
- measurement conditions: human, occipital lobe, intravenous, 8.8 mCi, Distribution volume (DV), Occiptal lobe; subject 4; bolus
measurement type: Kp

[123I]c1cncc(OC[C@@H]2CCN2)c1 [5-[^123I]IA]	4.17

====

- experiment: 5-[^123I]IA SPECT of the living human brain, VOI kinetic analysis
- Assay type: in vivo, Humans (Homo sapiens)
- measurement conditions: human, fusiform gyrus, intravenous, Median DV of high plasma nicotine group, Fusiform gyrus; six volunteers
measurement type: Kp

[123I]c1cncc(OC[C@@H]2CCN2)c1 [5-[^123I]IA]	9.46

====

- experiment: 5-[^123I]IA SPECT of the living human brain, VOI kinetic analysis
- Type: in vivo, Humans (Homo sapiens)
- measurement conditions: human, brain (frontal lobe), intravenous, 9.3 mCi, Distribution volume (DV), Frontal lobe; subject 3; bolus
measurement type: Kp

[123I]c1cncc(OC[C@@H]2CCN2)c1 [5-[^123I]IA]	8.56

====

- experiment: 5-[^123I]IA SPECT of the living human brain, VOI kinetic analysis
- Format: in vivo, Humans (Homo sapiens)
- measurement conditions: human, parietal lobe, intravenous, 9.3 mCi, Distribution volume (DV); subject 3; bolus
measurement type: Kp

[123I]c1cncc(OC[C@@H]2CCN2)c1 [5-[^123I]IA]	8.71

====

- experiment: 5-[^123I]IA SPECT of the living human brain, VOI kinetic analysis
- Assay type: in vivo, Humans (Homo sapiens)
- measurement conditions: human, head of the caudate nucleus, intravenous, 9.3 mCi, Distribution volume (DV), Caudate head; subject 3; bolus
measurement type: Kp

[123I]c1cncc(OC[C@@H]2CCN2)c1 [5-[^123I]IA]	13.1

====

- experiment: 5-[^123I]IA SPECT of the living human brain, VOI kinetic analysis
- Type: in vivo, Humans (Homo sapiens)
- measurement conditions: human, cerebellum, intravenous, 9.3 mCi, Distribution volume (DV); subject 3; bolus
measurement type: Kp

[123I]c1cncc(OC[C@@H]2CCN2)c1 [5-[^123I]IA]	9.88

====

- experiment: 5-[^123I]IA SPECT of the living human brain, VOI kinetic analysis
- Type: in vivo, Humans (Homo sapiens)
- measurement conditions: human, brain (cortex), intravenous, 8.1 mCi, Distribution volume (DV), Cortex; subject 1; bolus
measurement type: Kp

[123I]c1cncc(OC[C@@H]2CCN2)c1 [5-[^123I]IA]	12.8

====

- experiment: 5-[^123I]IA SPECT of the living human brain, VOI kinetic analysis
- Assay type: in vivo, Humans (Homo sapiens)
- measurement conditions: human, cerebellum, intravenous, 8.1 mCi, Distribution volume (DV); subject 1; bolus
measurement type: Kp

[123I]c1cncc(OC[C@@H]2CCN2)c1 [5-[^123I]IA]	8.71

====

- experiment: 5-[^123I]IA SPECT of the living human brain, VOI kinetic analysis
- Type: in vivo, Humans (Homo sapiens)
- measurement conditions: human, occipital cortex, intravenous, Median DV of low plasma nicotine group, Occiptal cortex; six volunteers
measurement type: Kp

[123I]c1cncc(OC[C@@H]2CCN2)c1 [5-[^123I]IA]	14.2

====

- experiment: 5-[^123I]IA SPECT of the living human brain, VOI kinetic analysis
- Type: in vivo, Humans (Homo sapiens)
- measurement conditions: human, pons, intravenous, 8.1 mCi, Distribution volume (DV); subject 1; bolus
measurement type: Kp

[123I]c1cncc(OC[C@@H]2CCN2)c1 [5-[^123I]IA]	15.1

====

- experiment: 5-[^123I]IA SPECT of the living human brain, VOI kinetic analysis
- Type: in vivo, Humans (Homo sapiens)
- measurement conditions: human, brain (fusiform gyrus), intravenous, 8.1 mCi, Distribution volume (DV), Fusiform gyrus; subject 1; bolus
measurement type: Kp

[123I]c1cncc(OC[C@@H]2CCN2)c1 [5-[^123I]IA]	9.34

====

- experiment: 5-[^123I]IA SPECT of the living human brain, VOI kinetic analysis
- Format: in vivo, Humans (Homo sapiens)
- measurement conditions: human, caudate head, intravenous, Median DV of low plasma nicotine group, Caudate head; six volunteers
measurement type: Kp

[123I]c1cncc(OC[C@@H]2CCN2)c1 [5-[^123I]IA]	21.9

====

- experiment: 5-[^123I]IA SPECT of the living human brain, VOI kinetic analysis
- Assay type: in vivo, Humans (Homo sapiens)
- measurement conditions: human, caudate head, intravenous, Median DV of high plasma nicotine group, Caudate head; six volunteers
measurement type: Kp

[123I]c1cncc(OC[C@@H]2CCN2)c1 [5-[^123I]IA]	13.7

====

- experiment: 5-[^123I]IA SPECT of the living human brain, VOI kinetic analysis
- Assay type: in vivo, Humans (Homo sapiens)
- measurement conditions: human, brain (frontal lobe), intravenous, 8.8 mCi, Distribution volume (DV), Frontal lobe; subject 4; bolus
measurement type: Kp

[123I]c1cncc(OC[C@@H]2CCN2)c1 [5-[^123I]IA]	5.46

====

- experiment: 5-[^123I]IA SPECT of the living human brain, VOI kinetic analysis
- Assay type: in vivo, Humans (Homo sapiens)
- measurement conditions: human, fusiform gyrus, intravenous, Median DV of low plasma nicotine group, Fusiform gyrus; six volunteers
measurement type: Kp

[123I]c1cncc(OC[C@@H]2CCN2)c1 [5-[^123I]IA]	19.9

====

- experiment: 5-[^123I]IA SPECT of the living human brain, VOI kinetic analysis
- Format: in vivo, Humans (Homo sapiens)
- measurement conditions: human, head of the caudate nucleus, intravenous, 8.1 mCi, Distribution volume (DV), Caudate head; subject 1; bolus
measurement type: Kp

[123I]c1cncc(OC[C@@H]2CCN2)c1 [5-[^123I]IA]	13.7

====

- experiment: 5-[^123I]IA SPECT of the living human brain, VOI kinetic analysis
- Type: in vivo, Humans (Homo sapiens)
- measurement conditions: human, putamen, intravenous, 8.8 mCi, Distribution volume (DV); subject 4; bolus
measurement type: Kp

[123I]c1cncc(OC[C@@H]2CCN2)c1 [5-[^123I]IA]	8.74

====

- experiment: 5-[^123I]IA SPECT of the living human brain, VOI kinetic analysis
- Assay type: in vivo, Humans (Homo sapiens)
- measurement conditions: human, cerebellum, intravenous, 8.8 mCi, Distribution volume (DV); subject 4; bolus
measurement type: Kp

[123I]c1cncc(OC[C@@H]2CCN2)c1 [5-[^123I]IA]	5.4

====

- experiment: 5-[^123I]IA SPECT of the living human brain, VOI kinetic analysis
- Assay type: in vivo, Humans (Homo sapiens)
- measurement conditions: human, brain (cortex), intravenous, 8.8 mCi, Distribution volume (DV), Cortex; subject 4; bolus
measurement type: Kp

[123I]c1cncc(OC[C@@H]2CCN2)c1 [5-[^123I]IA]	7.62

====

- experiment: 5-[^123I]IA SPECT of the living human brain, VOI kinetic analysis
- Format: in vivo, Humans (Homo sapiens)
- measurement conditions: human, occipital cortex, intravenous, Median DV of high plasma nicotine group, Occiptal cortex; six volunteers
measurement type: Kp

[123I]c1cncc(OC[C@@H]2CCN2)c1 [5-[^123I]IA]	7.15

====

- experiment: 5-[^123I]IA SPECT of the living human brain, VOI kinetic analysis
- Type: in vivo, Humans (Homo sapiens)
- measurement conditions: human, cingulate gyrus, intravenous, 8.1 mCi, Distribution volume (DV); subject 1; bolus
measurement type: Kp

[123I]c1cncc(OC[C@@H]2CCN2)c1 [5-[^123I]IA]	12.6

====

- experiment: 5-[^123I]IA SPECT of the living human brain, VOI kinetic analysis
- Type: in vivo, Humans (Homo sapiens)
- measurement conditions: human, pons, intravenous, 9.3 mCi, Distribution volume (DV); subject 3; bolus
measurement type: Kp

[123I]c1cncc(OC[C@@H]2CCN2)c1 [5-[^123I]IA]	20.4

Where these numbers come from: paper PMC2766259
